# Test system: CAPAN-1;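 further: growth suppression of CAPAN-1 cells, read out by a cell viability assay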
# Method: cells
# Assay type: functional, cell-based
# Settings: Homo sapiens
# Description: SANGER: Inhibition of human CAPAN-1 cell growth in a cell viability assay.
Exercise: for every item that follows, state its recorded IC50.

Q: Any idea what IC50 was measured for CC(O)(CS(=O)(=O)c1ccc(F)cc1)C(=O)Nc1ccc(C#N)c(C(F)(F)F)c1 (stereo not drawn) [BICALUTAMIDE] ?
A: > 1.02 µM

Q: Then this compound: "C[C@]1(c2nc3c(C(N)=O)cccc3[nH]2)CCCN1"
A: > 5 µM

***
Q: Any idea what IC50 was measured for "CC(=O)c1c(C)c2cnc(Nc3ccc(N4CCNCC4)cn3)nc2n(C2CCCC2)c1=O" ?
A: > 4 µM
